Tested on: Saccharomyces cerevisiae growth inhibition, permissive control
Test: yeast lifespan-shortening chemical project counter-assay, dose-response inhibition of growth under permissive conditions (AID 850);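 note: growth read as optical density after one day of incubation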
Active and inactive are the calls of the source. The rule behind the calls is not given here.
Classes used: active, inactive

| MOLECULE | TARGET_OR_TEST_SYSTEM | DISCRETE_LABEL |
| --- | --- | --- |
| Oc1ccc(-c2csc(-c3ccccc3)n2)cc1O | Saccharomyces cerevisiae growth inhibition, permissive control | active |
| CCC(=O)NC(c1ccc(C)cc1)c1cc([N+](=O)[O-])c2cccnc2c1O (stereo not given) | Saccharomyces cerevisiae growth inhibition, permissive control | active |
| CCOC(=O)CNC(=O)CSc1nnc(-c2ccco2)n1Cc1ccco1 | Saccharomyces cerevisiae growth inhibition, permissive control | inactive |
| c1cn2cc(-c3ccc4c(c3)OCO4)nc2s1 | Saccharomyces cerevisiae growth inhibition, permissive control | inactive |
| Cc1ccc(C(=O)O)cc1N=Cc1cc(Br)cc(Br)c1O | Saccharomyces cerevisiae growth inhibition, permissive control | active |
| Cc1ccccc1NC(=S)c1nc2ccccc2[nH]1 | Saccharomyces cerevisiae growth inhibition, permissive control | active |
| Cc1ccccc1C(=O)O/N=C/c1c(N2CCOCC2)n(C)c2ccccc12 | Saccharomyces cerevisiae growth inhibition, permissive control | active |
| COc1ccc(OC)c(-c2c3cc(O)c(=O)cc-3oc3cc(O)c(O)cc23)c1 | Saccharomyces cerevisiae growth inhibition, permissive control | active |
| Cc1cccc(OCCCCc2c(C)n[nH]c2C)c1C | Saccharomyces cerevisiae growth inhibition, permissive control | active |
| Cc1cc(C)c2c(N=NN3CCOCC3)[nH]nc2n1 | Saccharomyces cerevisiae growth inhibition, permissive control | inactive |
| Cc1cccc(N=Nc2ccc(O)c3ncccc23)c1 | Saccharomyces cerevisiae growth inhibition, permissive control | inactive |
| Oc1cccc2ccc(/C=C/c3cccs3)nc12 | Saccharomyces cerevisiae growth inhibition, permissive control | active |
| CN1CCc2cc3c(c4c2[C@H]1[C@H](O)c1ccccc1-4)OCO3 | Saccharomyces cerevisiae growth inhibition, permissive control | inactive |
| COc1cc(-c2nc3ccc4ccccc4c3c3c2CCC3)ccc1O | Saccharomyces cerevisiae growth inhibition, permissive control | inactive |
| CCCCCCCCCCCCCCCC[n+]1cccc(C(=O)N(CC)CC)c1 | Saccharomyces cerevisiae growth inhibition, permissive control | active |

====

System: Saccharomyces cerevisiae growth inhibition, permissive control
Test: yeast lifespan-shortening chemical project counter-assay, dose-response inhibition of growth under permissive conditions (AID 850);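 note: growth read as optical density after one day of incubation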
The source made the active and inactive calls. The rule behind the calls is not given here.
Classes used: active, inactive

| COMPOUND | DISCRETE_LABEL |
| --- | --- |
| Oc1c(C(Nc2nc3ccccc3s2)c2ccco2)ccc2cccnc12 (stereo not drawn) | inactive |
| O=C1c2ccccc2-c2nc3ccccc3nc21 | inactive |
| Cc1ccc(S(=O)(=O)Nc2ccc(SC(F)F)cc2)c(C)c1 | inactive |
| CC1CCC2(CC1)NC(=S)N(c1ccccc1)N2 (stereo not drawn) | active |
| Cc1cccc(C(=O)Oc2csc(=S)n2C(=O)c2cccc(C)c2)c1 | active |
| Cc1nn2c(-c3ccco3)nnc2c2ccccc12 | inactive |
| COc1ccc2c(c1)S/C(=C\C(=O)c1ccncc1)N2C | active |
| O=Cc1c(Sc2ccccc2)nc2ccccn2c1=O | inactive |
| CC(C)(C)C(=O)O/N=C1/C(=O)N(c2ccccc2)c2ccccc21 | active |
| CCCCCCOC(=O)Sc1nc2ccccc2o1 | active |
| Cc1cccc(/C=C/C(=O)c2cc(Br)ccc(=O)c2O)c1 | active |
| O=C(O)c1ccc(N(c2ccccc2)c2ccccc2)cc1 | inactive |
| CCCCCCCCCCCCCCCC(O)C(N)CO (stereo not drawn) | active |
